Each recorded value in this set is attributed to ChEMBL document CHEMBL1687705.

test system: HeLa; test: Cytotoxicity against human HeLa cells; format: functional; settings: read-out: LC50 (the source's name)
Overview of recorded CC50 for various molecules

These recorded examples may help you get a feel for the data.
>>> reported("Cc1cc(NC(=O)c2cc(-c3ccc(F)cc3F)c(CN)c(C)n2)no1")
"> 10 µM"
>>> reported("Cc1nc(C(=O)NC2CC2)cc(-c2ccc(F)cc2F)c1CN")
"> 10 µM"
>>> reported("Cc1nc(C(=O)NC2CC2)cc(-c2ccc(F)cc2)c1CN")
"> 10 µM"

# get_value(readout='CC50', item= `Cc1nc(C(N)=O)cc(-c2ccc(Cl)cc2Cl)c1CN` )
> 10 µM

Reported CC50 for `Cc1nc(C(=O)N2CCCC2)cc(-c2ccc(F)cc2)c1CN` : what is it?
> 10 µM

// query CC50 value for entry `Cc1nc(C(=O)NCC#N)cc(-c2ccc(Cl)cc2Cl)c1CN`
> 10 µM

Dear colleague, I am looking for the recorded CC50 of the following molecule: `Cc1nc(C(=O)N2CCCC2)cc(-c2ccc(Cl)cc2Cl)c1CN`
> 10 µM

Query (molecule): `CNC(=O)c1cc(-c2ccc(Cl)cc2Cl)c(CN)c(C)n1` ; field requested: CC50
> 10 µM

---

target: Dipeptidyl peptidase 8 (Homo sapiens, UniProt Q6V1X1); assay: Inhibition of human recombinant DPP8 assessed as Gly-Pro-pNA chromogenic substrate cleavage for 16 mins preincubated with compound for 10 mins before addition of chromogenic substrate
Sequence (Q6V1X1 whole entry): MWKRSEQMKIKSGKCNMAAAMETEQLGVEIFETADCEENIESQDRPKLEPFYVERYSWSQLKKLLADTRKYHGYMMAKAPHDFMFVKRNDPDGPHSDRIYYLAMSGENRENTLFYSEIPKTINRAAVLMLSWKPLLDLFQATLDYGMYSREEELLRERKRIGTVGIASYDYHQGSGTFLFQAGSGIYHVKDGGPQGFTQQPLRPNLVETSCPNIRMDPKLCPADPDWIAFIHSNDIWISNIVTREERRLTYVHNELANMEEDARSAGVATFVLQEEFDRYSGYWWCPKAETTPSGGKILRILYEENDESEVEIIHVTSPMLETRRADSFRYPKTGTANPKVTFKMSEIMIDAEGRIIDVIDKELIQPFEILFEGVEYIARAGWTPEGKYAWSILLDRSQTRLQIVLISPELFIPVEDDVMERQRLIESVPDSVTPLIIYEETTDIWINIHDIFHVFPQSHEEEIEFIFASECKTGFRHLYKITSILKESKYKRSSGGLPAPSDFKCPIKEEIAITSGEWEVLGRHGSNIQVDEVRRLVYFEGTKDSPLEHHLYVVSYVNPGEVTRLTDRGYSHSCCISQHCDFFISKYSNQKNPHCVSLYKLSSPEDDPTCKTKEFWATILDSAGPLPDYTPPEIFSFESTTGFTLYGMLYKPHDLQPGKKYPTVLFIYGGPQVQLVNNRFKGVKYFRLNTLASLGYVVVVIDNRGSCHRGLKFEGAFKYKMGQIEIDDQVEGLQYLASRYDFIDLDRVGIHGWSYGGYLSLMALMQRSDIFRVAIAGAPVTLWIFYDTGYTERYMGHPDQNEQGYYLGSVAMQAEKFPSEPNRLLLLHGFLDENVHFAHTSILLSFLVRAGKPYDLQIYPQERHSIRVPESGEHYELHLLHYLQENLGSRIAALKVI
List of Ki values.
Return type: number; implicit unit µM.

// below: answered molecules
>>> reported("Cc1nc(C(=O)NC2CC2)cc(-c2ccc(F)cc2F)c1CN")
182
>>> reported("Cc1cc(NC(=O)c2cc(-c3ccc(F)cc3F)c(CN)c(C)n2)no1")
179
>>> reported("Cc1nc(C(=O)N2CCCC2)cc(-c2ccc(F)cc2)c1CN")
137

In the following, a different molecule is considered.
What does the record list as Ki for `Cc1nc(C(=O)NC2CC2)cc(-c2ccc(F)cc2)c1CN` ?
106
